Reference source for all entries: patent US20250250357A1

Target: T1, human MSLN-FL-his protein (human, UniProt Q13421 296-580)
T1 construct: Made in HEK293E cells, purified on nickel column; it is put last here; also called human MSLN full-length protein; hMSLN-FL-his; not shown: His tag
T1 sequence (Q13421 other isoform, or with tags, fused parts or gaps): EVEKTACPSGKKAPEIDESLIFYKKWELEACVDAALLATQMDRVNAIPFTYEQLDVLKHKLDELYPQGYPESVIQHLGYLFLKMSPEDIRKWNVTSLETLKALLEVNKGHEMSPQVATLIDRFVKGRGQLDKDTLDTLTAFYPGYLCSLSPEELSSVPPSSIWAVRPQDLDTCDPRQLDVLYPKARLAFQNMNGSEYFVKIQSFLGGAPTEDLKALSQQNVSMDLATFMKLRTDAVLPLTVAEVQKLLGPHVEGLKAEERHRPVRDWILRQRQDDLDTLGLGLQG
Assay: ELISA on coated antigen, antibody 0.0001 nM
quantity: OD450 (OD)
Numbers only, in OD.

S009-F8-12.13 (antibody, human IgG1, kappa, V domains shown, Human-murine chimeric antibody, human IgG1 heavy and kappa light constant regions) VH: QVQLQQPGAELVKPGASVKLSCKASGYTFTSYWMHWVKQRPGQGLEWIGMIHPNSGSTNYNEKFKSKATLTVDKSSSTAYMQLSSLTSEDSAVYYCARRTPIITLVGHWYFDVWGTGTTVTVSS VL: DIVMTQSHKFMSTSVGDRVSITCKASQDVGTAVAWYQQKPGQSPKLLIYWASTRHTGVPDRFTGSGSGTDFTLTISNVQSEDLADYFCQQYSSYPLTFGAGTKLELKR = 0.32

Look up OD450 for this binder: S009-F8-33.12 (antibody, human IgG1, kappa, V domains shown, Human-murine chimeric antibody, human IgG1 heavy and kappa light constant regions) VH: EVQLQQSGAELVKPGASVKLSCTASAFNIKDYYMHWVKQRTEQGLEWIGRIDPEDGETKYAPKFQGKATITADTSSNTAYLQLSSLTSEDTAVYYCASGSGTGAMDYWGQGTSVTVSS VL: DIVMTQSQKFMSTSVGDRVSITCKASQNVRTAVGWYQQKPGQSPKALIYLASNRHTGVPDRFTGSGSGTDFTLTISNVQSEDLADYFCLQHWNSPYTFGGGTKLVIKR 0.05
